target: T1, human PD1-ECD (human, UniProt Q15116 25-170); test: SPR Biacore T200, Ab captured on anti-human IgG, 25 C
T1 construct: SPR analyte; also called hu PD1-ECD
result.type: pKd
Scale: pKd equals -log10([C]), with [C] in mol/L.

Answered cases to consult:
Give its pKd value. Item: PD1-0103-0314 (antibody, human IgG1, V domains shown, Humanized) VH: EVQLLESGGGLVQPGGSLRLSCAASGFSFSSYTMSWVRQAPGKGLEWVATISGGGRDIYYPDSVKGRFTISRDNSKNTLYLQMNSLRAEDTAVYYCVLLTGRVYFALDSWGQGTLVTVSS VL: EIVLTQSPATLSLSPGERATLSCRASESVDTSDNSFIHWYQQKPGQSPRLLIYRSSTLESGIPARFSGSGSGTDFTLTISSLEPEDFAVYYCQQNYDVPWTFGQGTKVEIK
8.82

Give its pKd value. Item: PD1-0103-0312 (antibody, human IgG1, V domains shown, Humanized) VH: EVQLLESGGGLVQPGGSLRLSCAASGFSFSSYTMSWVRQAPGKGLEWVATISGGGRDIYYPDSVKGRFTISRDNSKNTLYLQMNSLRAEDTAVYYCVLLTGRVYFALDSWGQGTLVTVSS VL: DIVMTQSPDSLAVSLGERATINCKASESVDTSDNSFIHWYQQKPGQSPKLLIYRSSTLESGVPDRFSGSGSGTDFTLTISSLQAEDVAVYYCQQNYDVPWTFGQGTKVEIK
8.74

Give its pKd value. Item: PD1-0103-0313 (antibody, human IgG1, V domains shown, Humanized) VH: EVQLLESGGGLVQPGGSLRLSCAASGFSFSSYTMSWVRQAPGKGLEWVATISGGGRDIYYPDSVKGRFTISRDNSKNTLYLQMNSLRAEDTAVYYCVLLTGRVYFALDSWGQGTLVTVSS VL: DVVMTQSPLSLPVTLGQPASISCRASESVDTSDNSFIHWYQQRPGQSPRLLIYRSSTLESGVPDRFSGSGSGTDFTLKISRVEAEDVGVYYCQQNYDVPWTFGQGTKVEIK
8.64

Give its pKd value. Item: chimeric PD1-0103 (antibody, human IgG1, V domains shown) VH: EVILVESGGGLVKPGGSLKLSCAASGFSFSSYTMSWVRQTPEKRLDWVATISGGGRDIYYPDSVKGRFTISRDNAKNTLYLEMSSLMSEDTALYYCVLLTGRVYFALDSWGQGTSVTVSS VL: KIVLTQSPASLPVSLGQRATISCRASESVDTSDNSFIHWYQQRPGQSPKLLIYRSSTLESGVPARFSGSGSRTDFTLTIDPVEADDVATYYCQQNYDVPWTFGGGTKLEIK
9.10

Now take the following binder into account.
Give its pKd value. Item: PD1-0103-0315 (antibody, human IgG1, V domains shown, Humanized) VH: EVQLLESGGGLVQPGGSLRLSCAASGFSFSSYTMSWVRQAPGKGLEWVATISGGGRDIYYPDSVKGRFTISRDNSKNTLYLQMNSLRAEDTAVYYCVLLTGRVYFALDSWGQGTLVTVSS VL: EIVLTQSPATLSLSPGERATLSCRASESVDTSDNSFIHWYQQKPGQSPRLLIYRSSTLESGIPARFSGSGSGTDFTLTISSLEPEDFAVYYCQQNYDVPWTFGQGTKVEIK
8.82
